Experiment: total protein half-life in vivo (active degradation + dilution); higher = more stable protein
Conditions: wild type E. coli NCM3722; growth: N-lim chemostat; doubling time 12 h
# binarize total protein half-life in vivo: threshold 10 h inclusive, high side yes (1), low side no (0)

residueCodes	labelValue
MMKRNILAVIVPALLVAGTANAAEIYNKDGNKVDLYGKAVGLHYFSKGNGENSYGGNGDMTYARLGFKGETQINSDLTGYGQWEYNFQGNNSEGADAQTGNKTRLAFAGLKYADVGSFDYGRNYGVVYDALGYTDMLPEFGGDTAYSDDFFVGRVGGVATYRNSNFFGLVDGLNFAVQYLGKNERDTARRSNGDGVGGSISYEYEGFGIVGAYGAADRTNLQEAQPLGNGKKAEQWATGLKYDANNIYLAANYGETRNATPITNKFTNTSGFANKTQDVLLVAQYQFDFGLRPSIAYTKSKAKDVEGIGDVDLVNYFEVGATYYFNKNMSTYVDYIINQIDSDNKLGVGSDDTVAVGIVYQF	yes (1)
MTQFNPVDHPHRRYNPLTGQWILVSPHRAKRPWQGAQETPAKQVLPAHDPDCFLCAGNVRVTGDKNPDYTGTYVFTNDFAALMSDTPDAPESHDPLMRCQSARGTSRVICFSPDHSKTLPELSVAALTEIVKTWQEQTAELGKTYPWVQVFENKGAAMGCSNPHPHGQIWANSFLPNEAEREDRLQKEYFAEQKSPMLVDYVQRELADGSRTVVETEHWLAVVPYWAAWPFETLLLPKAHVLRITDLTDAQRSDLALALKKLTSRYDNLFQCSFPYSMGWHGAPFNGEENQHWQLHAHFYPPLLRSATVRKFMVGYEMLAETQRDLTAEQAAERLRAVSDIHFRESGV	no (0)
MIRNVLLAFMICSGMTLLGGCSSVMSHTGGKEGTYPGTRASATMIGDDETNWGTKSLAILDMPFTAVMDTLLLPWDVFRKDSSVRSRVEKSEANAQATNAVIPPARMPDN [P0ADM4]	yes (1)
MKILVDENMPYARDLFSRLGEVTAVPGRPIPVAQLADADALMVRSVTKVNESLLAGKPIKFVGTATAGTDHVDEAWLKQAGIGFSAAPGCNAIAVVEYVFSSLLMLAERDGFSLYDRTVGIVGVGNVGRRLQARLEALGIKTLLCDPPRADRGDEGDFRSLDELVQRADILTFHTPLFKDGPYKTLHLADEKLIRSLKPGAILINACRGAVVDNTALLTCLNEGQKLSVVLDVWEGEPELNVELLKKVDIGTSHIAGYTLEGKARGTTQVFEAYSKFIGHEQHVALDTLLPAPEFGRITLHGPLDQPTLKRLVHLVYDVRRDDAPLRKVAGIPGEFDKLRKNYLERREWSSLYVICDDASAASLLCKLGFNAVHHPAR	no (0)
